The reader will find reported IC50 values listed item by item below.
system: SW1573; test: cells; assay type: functional, cell-based, Homo sapiens; settings: Homo sapiens, SW1573;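 also: growth inhibition of SW1573 cells, read out with a cell viability assay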
Description: SANGER: Inhibition of human SW1573 cell growth in a cell viability assay.
Counter-ions that a name gives are not always drawn.

Illustrative cases are given below, each with its answer.
Compound	IC50
CC1(C)CNc2cc(NC(=O)c3cccnc3NCc3ccncc3)ccc21 [MOTESANIB]	> 2000 nM
O=C(O)c1ccc(-c2c[nH]c3ncc(-c4ccccc4)cc23)cc1C1CCCC1 [GSK-650394]	> 16000 nM
Oc1ccc2ccccc2c1SSc1c(O)ccc2ccccc12	> 32000 nM
COC1=CC(c2cc3ccccc3[nH]2)=N/C1=C\c1[nH]c(C)cc1C [OBATOCLAX MESYLATE]	2020 nM
COc1cc2c(Nc3ccc(NC(=O)c4ccccc4)cc3)ncnc2cc1OCCCN1CCOCC1	> 4000 nM

// switching to the query compound
Tell me the measured IC50 of COc1cccc2c1C(=O)c1c(O)c3c(c(O)c1C2=O)C[C@@](O)(C(=O)CO)C[C@@H]3O[C@H]1C[C@H](N)[C@H](O)[C@H](C)O1 [DOXORUBICIN] , please.
82.8 nM

Hey, just so you know, these numbers are from ChEMBL document CHEMBL1201861.
